# (inhibition %) per record follows
system: Bacillus cereus; assay: Agar disc diffusion, strain G; format: cell-based; design: concentration or dose not given beside the values
Value expressed in %; do not type the unit.

The examples below pair each entry with its known result.
compound	measuredTarget	unitOfMeasurement	(inhibition %)
[Cu+2].[O-]c1ccccc1N=Cc1ccc(N2CCOCC2)cc1.[O-]c1ccccc1N=Cc1ccc(N2CCOCC2)cc1.c1ccc(-c2ccccn2)nc1 [(1a), [Cu(L)2(bpy)]]	Bacillus cereus	%	54
[O-]c1ccccc1N=Cc1ccc(N2CCOCC2)cc1.[O-]c1ccccc1N=Cc1ccc(N2CCOCC2)cc1.[Zn+2].c1ccc(-c2ccccn2)nc1 [(2a), [Zn(L)2(bpy)]]	Bacillus cereus	%	57

Query :: # get_value(readout='(inhibition %)', item= [H]/N=C(/N)N[C@H]1[C@H](O)[C@@H](O)[C@H](O[C@@H]2O[C@@H](C)[C@](O)(C=O)[C@H]2O[C@@H]2O[C@@H](CO)[C@H](O)[C@@H](O)[C@@H]2NC)[C@@H](N/C(N)=N\[H])[C@@H]1O [Streptomycin, reference compound] )
Result :: 71

Query :: # get_value(readout='(inhibition %)', item= `Oc1ccccc1N=Cc1ccc(N2CCOCC2)cc1` )
Result :: 33

Query :: # get_value(readout='(inhibition %)', item= NCC[C@H](O)C(=O)N[C@@H]1C[C@H](N)[C@@H](O[C@H]2O[C@H](CN)[C@@H](O)[C@H](O)[C@H]2O)[C@H](O)[C@H]1O[C@H]1O[C@H](CO)[C@@H](O)[C@H](N)[C@H]1O [Amikacin, reference compound] )
Result :: 70

====

Experiment: Superoxide scavenging assay
Format: biochemical
Protocol: All samples were evaluated for their scavenging ability with the help of UV-visible spectrophotometer at different concentrations of 40, 80, 120, 160, 200, and 240 μM [6, 28]. While performing the antioxidant properties for the DPPH, hydroxyl, superoxide, and nitric oxide radical scavenging, the absorbance at 517, 230, 590, and 546 nm, respectively, was closely observed. In addition, the observed IC50 values of all samples were compared with ascorbic acid. […]
# pIC50 per record follows
Quick note: pIC50 means taking -log10 of the concentration in moles per liter.

compound	numericResult
O=C1O[C@H]([C@@H](O)CO)C(O)=C1O [Ascorbic acid, reference compound]	3.92

Query :: # get_value(readout='pIC50', item= [Cu+2].[O-]c1ccccc1N=Cc1ccc(N2CCOCC2)cc1.[O-]c1ccccc1N=Cc1ccc(N2CCOCC2)cc1.c1ccc(-c2ccccn2)nc1 [(1a), [Cu(L)2(bpy)]] )
Result :: 3.70

====

system: Candida albicans; test: Agar disc diffusion, strain I; format: cell-based; settings: control = 6 mm
# diameter of the clear zone inhibition per record follows

The examples below pair each entry with its known result.
compound	diameter of the clear zone inhibition
C[C@@H]1[C@H](O)[C@@H](C)/C=C/C=C/C=C/C=C/C=C/C=C/C=C/[C@H](O[C@@H]2O[C@H](C)[C@@H](O)[C@H](N)[C@@H]2O)C[C@@H]2O[C@](O)(C[C@@H](O)C[C@@H](O)[C@H](O)CC[C@@H](O)C[C@@H](O)CC(=O)O[C@H]1C)C[C@H](O)[C@H]2C(=O)O [Amphotericin B, reference compound]	17 mm
Oc1ccccc1N=Cc1ccc(N2CCOCC2)cc1 [(HL), 2-(4-morpholinobenzylideneamino)phenol]	10 mm
[Cu+2].[O-]c1ccccc1N=Cc1ccc(N2CCOCC2)cc1.[O-]c1ccccc1N=Cc1ccc(N2CCOCC2)cc1.c1ccc(-c2ccccn2)nc1 [(1a), [Cu(L)2(bpy)]]	12 mm
CC(=O)N1CCN(c2ccc(OCC3COC(Cn4ccnc4)(c4ccc(Cl)cc4Cl)O3)cc2)CC1 (centres unmarked) [Ketoconazole, reference compound]	18 mm

Proceed to the following item.
Query :: # get_value(readout='diameter of the clear zone inhibition', item= [O-]c1ccccc1N=Cc1ccc(N2CCOCC2)cc1.[O-]c1ccccc1N=Cc1ccc(N2CCOCC2)cc1.[Zn+2].c1ccc(-c2ccccn2)nc1 [(2a), [Zn(L)2(bpy)]] )
Result :: 13 mm
